Data origin, for the record: PubChem BioAssay (NCI)

# Tested on: BT-549 breast
# procedure details: NCI-60 one-dose screen, 48 h (100 = growth as untreated, 0 = no growth, -100 = all killed)
# condition info: 10 µM unless noted
This is part of a sample that, as a whole, favours compounds with a hit. Of some 83,000 tested, about 20% had one in any assay.
// growth lookup, one value per entry
Lab book: enter the figure in %, no units written.

CCCCCCC(C(=O)OCC)(C(=O)OCC)C1CCCCCC1    104

Ask | Form: Entry = `CCCCCCCCCC[N+](C)(C)N` | System = BT-549 breast | growth = ____
Reply | 84.2

Ask | Form: Entry = `COC(=O)c1ccc(C(=Nc2ccc(N(C)C(=O)CN3CCN(C)CC3)cc2)c2c(O)[nH]c3ccc(C(=O)OC)cc23)cc1` | System = BT-549 breast | growth = ____
Reply | 45.8

Ask | Form: Entry = `O=C(N/N=C\c1ccc(Cl)cc1)C(=O)N/N=C\c1ccc(Cl)cc1` | System = BT-549 breast | growth = ____
Reply | 95.4

---

# Test system: ACHN renal
# procedure details: NCI-60 one-dose screen, 48 h (100 = growth as untreated, 0 = no growth, -100 = all killed)
# condition info: 10 µM unless noted
Compounds without any hit were thinned out: in the full panel of roughly 83,000, 20% have a hit.
// growth lookup, one value per entry
Lab book: enter the figure in %, no units written.

Here are 3 compounds together with their reported answers.
O=C1/C(=C/c2ccc(Cl)cc2)CCC/C1=C\c1ccc(Cl)cc1    95
C[C@H]1C[C@@H](n2cnc3c(N)nccc32)[C@H](O)[C@@H]1O    101
Cc1c(Cc2ccccc2)c(=O)oc2c(C)c(OCC(=O)n3nc(C#N)cc3N)ccc12    93.6

Ask | Form: Entry = CC(=O)OCC1O[C@@H](OC(C)=O)[C@@H](NC(=O)NS(=O)(=O)c2ccccc2)C(OC(C)=O)[C@@H]1OC(C)=O (stereo not given in full) | System = ACHN renal | growth = ____
Reply | 104

Ask | Form: Entry = `COC1=C(OC)C(=O)c2ccccc2C1=O` | System = ACHN renal | growth = ____
Reply | 92

---

# Test system: HCT-15 colon
# procedure details: NCI-60 one-dose screen, 48 h
# condition info: 10 µM unless noted
About 83,000 compounds went through this panel and 20% of them were active in at least one assay; those are over-represented in the sample as a whole. Active and inactive are the calls of the source. Rule for the calls: active = growth percent below 10; inactive = the rest.
Returns: one label drawn from 1 (active), 0 (inactive)

Please review the entries below; each comes with its answer.
Cc1ccnc2c(NC(C)CCCN)cc(O)c(O)c12 (stereo not given)    0
Cc1c([C@H](C(Cl)Cl)[C@H](O)[C@H]2C[C@H](C)C(=O)O2)ccc2c1C(=O)[C@H]1[C@H]2C[C@@H](Br)[C@@]23O[C@@H](CO[C@H]2O)CC13C (stereo not given in full)    1
CCCC(CCC)Oc1ccc(CCCC2=C(O)c3ccccc3C(=O)C2=O)cc1    0
COc1cccc2c1nc1cccc(OC)c1[n+]2[O-]    0
CC(O)C(N)=O (stereo not given)    0
CC1(C)C(O)NC(Cl)=C(C#N)C1(C#N)C#N (stereo not given)    0
CC(=O)OCC(=O)[C@@]1(O)[C@H](C)C[C@H]2[C@@H]3C=C(C)C4=Cc5c(cnn5-c5ccc(F)cc5)C[C@]4(C)[C@H]3[C@@H](O)C[C@@]21C    1
Cc1sc(NC(=O)c2ccc(C(C)(C)C)cc2)c(C(=O)O)c1C    0
COC1=CC(c2ccc[nH]2)=N/C1=C\c1[nH]c(C)c(C(=O)CCCCC(=O)NC(C)(C)C)c1C    1
NC(=O)c1c(Nc2ccccc2)nn2cc(-c3nc4ccccc4s3)c(N)nc12    0

Ask | Outcome logged for `COc1ccc2cn3c4ccc(O)cc4[nH]c(=O)c3c2c1` in this assay:
Reply | 0

Ask | Outcome logged for `COC(=O)c1ccc2[nH]c(O)c(C(=Nc3ccc(N(C)C(=O)CN4CCN(C)CC4)cc3)c3cccc(OC)c3)c2c1` in this assay:
Reply | 1

Ask | Outcome logged for COc1cc(NC(C)CCCN)c2nccc(C)c2c1OC (stereo not given) in this assay:
Reply | 0

Ask | Outcome logged for `COC(=O)c1cc(O)c2cc3c(cc2c1-c1cc(OC)c(OC)c(OC)c1)OCO3` in this assay:
Reply | 0

Ask | Outcome logged for `CCCCCCCCCC[N+](C)(C)N` in this assay:
Reply | 0

Ask | Outcome logged for C/C=C(/C)C(=O)OC1C=C(CO)C(=O)C(OC(=O)C2(C)OC2C)C1C(C)C (stereo not given) in this assay:
Reply | 1

Ask | Outcome logged for `CN1C(=O)C(=Cc2coc3ccc(Br)cc3c2=O)C(=O)N(C)C1=O` in this assay:
Reply | 0

Ask | Outcome logged for `O=C(CN1C(=O)NC(c2ccccc2)(c2ccccc2)C1=O)c1ccc(N2CCCC2)cc1` in this assay:
Reply | 0

Ask | Outcome logged for `CCCC(=O)NNc1[nH]c(-c2ccc(OC)cc2)cc1C(=O)OCC` in this assay:
Reply | 0

Ask | Outcome logged for `COc1cc2c(cc1OC)C(Cc1cc(OC)c(OC)cc1[N+](=O)[O-])=NCC2` in this assay:
Reply | 0

---

# Test system: A549/ATCC NSCLC
# procedure details: NCI-60 one-dose screen, 48 h (100 = growth as untreated, 0 = no growth, -100 = all killed)
# condition info: 10 µM unless noted
This is part of a sample that, as a whole, favours compounds with a hit. Of some 83,000 tested, about 20% had one in any assay.
Category key, based on recorded growth: bin A: < 20%; bin B: ≥ 20% and < 90%; bin C: ≥ 90%

COC(=O)c1cc(Nc2ccc(O)c3c2C(=O)c2c([N+](=O)[O-])ccc(O)c2C3=O)cc(C(=O)OC)c1    bin A

Ask | Which growth band matches `COc1cc(N2C(=O)C=CC2=O)ccc1N1C(=O)C=CC1=O` ?
Reply | bin C

Ask | Which growth band matches `Brc1c(-c2ccncc2)nc2n1CCS2` ?
Reply | bin C

Ask | Which growth band matches `COc1ccc(-c2cn3ccnc3c(-c3ccc4ncn(C5CCCCC5)c4c3)n2)cc1` ?
Reply | bin B

Ask | Which growth band matches `CCCC(CCC)Oc1ccc(CCCC2=C(O)c3ccccc3C(=O)C2=O)cc1` ?
Reply | bin B

Ask | Which growth band matches `Cc1ncc(C(=O)Nc2ccc(CN3CCN(C)CC3)c(C(F)(F)F)c2)cc1C#Cc1c(N)ncc2ccccc12` ?
Reply | bin A

Ask | Which growth band matches `Cc1ncc(C(=O)Nc2ccc(CN3CCN(C)CC3)c(C(F)(F)F)c2)cc1C#Cc1cnc(NC2CC2)c2ncccc12` ?
Reply | bin A

Ask | Which growth band matches `Cc1sc(NC(=O)c2ccc(C(C)(C)C)cc2)c(C(=O)O)c1C` ?
Reply | bin B

Ask | Which growth band matches `CC(=O)Nc1ccc(CC#N)cc1Br` ?
Reply | bin C

---

# System: HCC-2998 colon
# procedure details: NCI-60 one-dose screen, 48 h (100 = growth as untreated, 0 = no growth, -100 = all killed)
# condition info: 10 µM unless noted
The panel holds about 83,000 compounds, 20% with a hit somewhere; the sample as a whole holds those more often.
value kind: growth (%)
Lab book: enter the figure in %, no units written.

Here are 2 molecules together with their reported answers.
COC(=O)C(C(=O)OC)C(Br)C(Br)C(Br)c1ccccc1 (stereo not given)    110
COc1cccc(Cn2cc3c(c2)-c2oncc2CC3)c1    -32.4

Ask | # input molecule: `CCC(C)(CC)c1ccc(O)c(C)c1` ; wanted: its growth
Reply | 116

Ask | # input molecule: CCC(C)CC(N)O (stereo not given) ; wanted: its growth
Reply | 112

Ask | # input molecule: `CC1=C[C@@H]2c3c(c(O)c(O)c4oc5cc(O)cc(O)c5c(=O)c34)[C@@H](c3cc(O)c(O)c4oc5cc(O)cc(O)c5c(=O)c34)[C@@H]2C(C)(C)C1` ; wanted: its growth
Reply | -34.5

Ask | # input molecule: `CC(C)CSc1nc(-c2ccc(F)cc2)c(C#N)c(N2CCCCC2)n1` ; wanted: its growth
Reply | 104

Ask | # input molecule: `CCCCCCCCCCCCCCCCCC(=O)Nc1ccc(O)cc1` ; wanted: its growth
Reply | 120

---

# Tested on: HT29 colon
# procedure details: NCI-60 one-dose screen, 48 h
# condition info: 10 µM unless noted
The panel holds about 83,000 compounds, 20% with a hit somewhere; the sample as a whole holds those more often. The source made the active and inactive calls. Rule for the calls: active = growth percent below 10; inactive = the rest.
Returns: one label drawn from active, inactive

Please review the entries below; each comes with its answer.
COc1cc2ncnc(-n3ncc4cc(NC(=O)Nc5ccc(Cl)c(Cl)c5)ccc43)c2cc1OC    active
COC(=O)[C@H](Cc1cn(C)cn1)NC(=O)[C@H](CC(=O)OCc1ccccc1)NC(=O)Nc1cc(C(F)(F)F)cc(C(F)(F)F)c1    active
O=C(Nc1cccc(Cn2c(=O)[nH]c3ccc(Oc4ncccn4)cc3c2=O)c1)c1cccc(F)c1    inactive
CCCCCc1ccnc(CC(=O)c2ccc(OC)cc2)c1    inactive

Attention now shifts to the item below.
Ask | Outcome logged for `CCCCCCCCc1ccc(CCC(N)(CO)CO)cc1` in this assay:
Reply | active
